The reported numbers originate from patent US7943575B2.

# experiment: Pharmacokinetic profile of a SOMATULINE/DECAPEPTYL composition in beagle dogs (RIA of blood samples)
# Format: in vivo
# assay.setup: dog, in vivo; TIME 66.02 days; beagle dogs; 0.15 ml Example 1 semisolid mixture injected; read-out: concentration in blood samples (RIA)
test.readout: level at 1584.48 h (ng/mL)
Only the number, expressed in ng/mL, is required.

Please fill in: level at 1584.48 h reported for CC(C)[C@@H]1NC(=O)[C@H](CCCCN)NC(=O)[C@@H](Cc2c[nH]c3ccccc23)NC(=O)[C@H](Cc2ccc(O)cc2)NC(=O)[C@@H](NC(=O)[C@H](N)Cc2ccc3ccccc3c2)CSSC[C@@H](C(=O)N[C@H](C(N)=O)[C@@H](C)O)NC1=O [SOMATULINE, lanreotide] = 0.2

* * *

# experiment: Pharmacokinetic profile of a SOMATULINE/DECAPEPTYL composition in beagle dogs (RIA of blood samples)
# Assay type: in vivo
# assay.setup: dog, in vivo; TIME 0.00 days; beagle dogs; 0.15 ml Example 1 semisolid mixture injected; read-out: concentration in blood samples (RIA)
test.readout: level at 0 h
Your answer should be a number followed by the unit of measure.

Please fill in: level at 0 h reported for CC(C)[C@@H]1NC(=O)[C@H](CCCCN)NC(=O)[C@@H](Cc2c[nH]c3ccccc23)NC(=O)[C@H](Cc2ccc(O)cc2)NC(=O)[C@@H](NC(=O)[C@H](N)Cc2ccc3ccccc3c2)CSSC[C@@H](C(=O)N[C@H](C(N)=O)[C@@H](C)O)NC1=O [SOMATULINE, lanreotide] = 0.02 ng/mL

* * *

# experiment: Pharmacokinetic profile of a SOMATULINE/DECAPEPTYL composition in beagle dogs (RIA of blood samples)
# Type: in vivo
# assay.setup: beagle, dog, in vivo, 0.15 ml
test.readout: level at 0.96 h
Your answer should be a number followed by the unit of measure.

Please fill in: level at 0.96 h reported for CC(C)C[C@H](NC(=O)[C@@H](Cc1c[nH]c2ccccc12)NC(=O)[C@H](Cc1ccc(O)cc1)NC(=O)[C@H](CO)NC(=O)[C@H](Cc1c[nH]c2ccccc12)NC(=O)[C@H](Cc1c[nH]cn1)NC(=O)[C@@H]1CCC(=O)N1)C(=O)N[C@@H](CCCNC(=N)N)C(=O)N1CCC[C@H]1C(=O)NCC(N)=O [DECAPEPTYL] = 9.97 ng/mL

* * *

# experiment: Pharmacokinetic profile of a SOMATULINE/DECAPEPTYL composition in beagle dogs (RIA of blood samples)
# Assay type: in vivo
# assay.setup: beagle, dog, in vivo, 0.15 ml
test.readout: level at 528.96 h (ng/mL)
Only the number, expressed in ng/mL, is required.

Please fill in: level at 528.96 h reported for CC(C)C[C@H](NC(=O)[C@@H](Cc1c[nH]c2ccccc12)NC(=O)[C@H](Cc1ccc(O)cc1)NC(=O)[C@H](CO)NC(=O)[C@H](Cc1c[nH]c2ccccc12)NC(=O)[C@H](Cc1c[nH]cn1)NC(=O)[C@@H]1CCC(=O)N1)C(=O)N[C@@H](CCCNC(=N)N)C(=O)N1CCC[C@H]1C(=O)NCC(N)=O [DECAPEPTYL] = 0.13

* * *

# experiment: Pharmacokinetic profile of a SOMATULINE/DECAPEPTYL composition in beagle dogs (RIA of blood samples)
# Type: in vivo
# assay.setup: dog, in vivo; TIME 15.05 days; beagle dogs; 0.15 ml Example 1 semisolid mixture injected; read-out: concentration in blood samples (RIA)
test.readout: level at 361.2 h (ng/mL)
Only the number, expressed in ng/mL, is required.

Please fill in: level at 361.2 h reported for CC(C)[C@@H]1NC(=O)[C@H](CCCCN)NC(=O)[C@@H](Cc2c[nH]c3ccccc23)NC(=O)[C@H](Cc2ccc(O)cc2)NC(=O)[C@@H](NC(=O)[C@H](N)Cc2ccc3ccccc3c2)CSSC[C@@H](C(=O)N[C@H](C(N)=O)[C@@H](C)O)NC1=O [SOMATULINE, lanreotide] = 2.54

* * *

# experiment: Pharmacokinetic profile of a SOMATULINE/DECAPEPTYL composition in beagle dogs (RIA of blood samples)
# Assay type: in vivo
# assay.setup: dog, in vivo; TIME 8.04 days; beagle dogs; 0.15 ml Example 1 semisolid mixture injected; read-out: concentration in blood samples (RIA)
test.readout: level at 192.96 h (ng/mL)
Only the number, expressed in ng/mL, is required.

Please fill in: level at 192.96 h reported for CC(C)[C@@H]1NC(=O)[C@H](CCCCN)NC(=O)[C@@H](Cc2c[nH]c3ccccc23)NC(=O)[C@H](Cc2ccc(O)cc2)NC(=O)[C@@H](NC(=O)[C@H](N)Cc2ccc3ccccc3c2)CSSC[C@@H](C(=O)N[C@H](C(N)=O)[C@@H](C)O)NC1=O [SOMATULINE, lanreotide] = 5.99

* * *

# experiment: Pharmacokinetic profile of a SOMATULINE/DECAPEPTYL composition in beagle dogs (RIA of blood samples)
# Assay type: in vivo
# assay.setup: dog, in vivo; TIME 41.03 days; beagle dogs; 0.15 ml Example 1 semisolid mixture injected; read-out: concentration in blood samples (RIA)
test.readout: level at 984.72 h (ng/mL)
Only the number, expressed in ng/mL, is required.

Please fill in: level at 984.72 h reported for CC(C)[C@@H]1NC(=O)[C@H](CCCCN)NC(=O)[C@@H](Cc2c[nH]c3ccccc23)NC(=O)[C@H](Cc2ccc(O)cc2)NC(=O)[C@@H](NC(=O)[C@H](N)Cc2ccc3ccccc3c2)CSSC[C@@H](C(=O)N[C@H](C(N)=O)[C@@H](C)O)NC1=O [SOMATULINE, lanreotide] = 0.27

* * *

# experiment: Pharmacokinetic profile of a SOMATULINE/DECAPEPTYL composition in beagle dogs (RIA of blood samples)
# Assay type: in vivo
# assay.setup: dog, in vivo; TIME 0.08 days; beagle dogs; 0.15 ml Example 1 semisolid mixture injected; read-out: concentration in blood samples (RIA)
test.readout: level at 1.92 h

Please fill in: level at 1.92 h reported for CC(C)[C@@H]1NC(=O)[C@H](CCCCN)NC(=O)[C@@H](Cc2c[nH]c3ccccc23)NC(=O)[C@H](Cc2ccc(O)cc2)NC(=O)[C@@H](NC(=O)[C@H](N)Cc2ccc3ccccc3c2)CSSC[C@@H](C(=O)N[C@H](C(N)=O)[C@@H](C)O)NC1=O [SOMATULINE, lanreotide] = 12.6 ng/mL

* * *

# experiment: Pharmacokinetic profile of a SOMATULINE/DECAPEPTYL composition in beagle dogs (RIA of blood samples)
# Type: in vivo
# assay.setup: beagle, dog, in vivo, 0.15 ml
test.readout: level at 577.44 h (ng/mL)
Only the number, expressed in ng/mL, is required.

Please fill in: level at 577.44 h reported for CC(C)C[C@H](NC(=O)[C@@H](Cc1c[nH]c2ccccc12)NC(=O)[C@H](Cc1ccc(O)cc1)NC(=O)[C@H](CO)NC(=O)[C@H](Cc1c[nH]c2ccccc12)NC(=O)[C@H](Cc1c[nH]cn1)NC(=O)[C@@H]1CCC(=O)N1)C(=O)N[C@@H](CCCNC(=N)N)C(=O)N1CCC[C@H]1C(=O)NCC(N)=O [DECAPEPTYL] = 0.11

* * *

# experiment: Pharmacokinetic profile of a SOMATULINE/DECAPEPTYL composition in beagle dogs (RIA of blood samples)
# Type: in vivo
# assay.setup: beagle, dog, in vivo, 0.15 ml
test.readout: level at 361.2 h (ng/mL)
Only the number, expressed in ng/mL, is required.

Please fill in: level at 361.2 h reported for `CC(C)C[C@H](NC(=O)[C@@H](Cc1c[nH]c2ccccc12)NC(=O)[C@H](Cc1ccc(O)cc1)NC(=O)[C@H](CO)NC(=O)[C@H](Cc1c[nH]c2ccccc12)NC(=O)[C@H](Cc1c[nH]cn1)NC(=O)[C@@H]1CCC(=O)N1)C(=O)N[C@@H](CCCNC(=N)N)C(=O)N1CCC[C@H]1C(=O)NCC(N)=O` = 0.32

* * *

# experiment: Pharmacokinetic profile of a SOMATULINE/DECAPEPTYL composition in beagle dogs (RIA of blood samples)
# Type: in vivo
# assay.setup: dog, in vivo; TIME 0.38 days; beagle dogs; 0.15 ml Example 1 semisolid mixture injected; read-out: concentration in blood samples (RIA)
test.readout: level at 9.12 h (ng/mL)
Only the number, expressed in ng/mL, is required.

Please fill in: level at 9.12 h reported for CC(C)[C@@H]1NC(=O)[C@H](CCCCN)NC(=O)[C@@H](Cc2c[nH]c3ccccc23)NC(=O)[C@H](Cc2ccc(O)cc2)NC(=O)[C@@H](NC(=O)[C@H](N)Cc2ccc3ccccc3c2)CSSC[C@@H](C(=O)N[C@H](C(N)=O)[C@@H](C)O)NC1=O [SOMATULINE, lanreotide] = 17.8
